All figures here come from patent US20240182536A1.

Target: T1, IL-18 receptors on HEK-Blue IL-18 reporter cells (UniProt Q13478 19-541; O95256 20-599, limits assumed); note: unit not given here
T1 sequence (looked up) 1: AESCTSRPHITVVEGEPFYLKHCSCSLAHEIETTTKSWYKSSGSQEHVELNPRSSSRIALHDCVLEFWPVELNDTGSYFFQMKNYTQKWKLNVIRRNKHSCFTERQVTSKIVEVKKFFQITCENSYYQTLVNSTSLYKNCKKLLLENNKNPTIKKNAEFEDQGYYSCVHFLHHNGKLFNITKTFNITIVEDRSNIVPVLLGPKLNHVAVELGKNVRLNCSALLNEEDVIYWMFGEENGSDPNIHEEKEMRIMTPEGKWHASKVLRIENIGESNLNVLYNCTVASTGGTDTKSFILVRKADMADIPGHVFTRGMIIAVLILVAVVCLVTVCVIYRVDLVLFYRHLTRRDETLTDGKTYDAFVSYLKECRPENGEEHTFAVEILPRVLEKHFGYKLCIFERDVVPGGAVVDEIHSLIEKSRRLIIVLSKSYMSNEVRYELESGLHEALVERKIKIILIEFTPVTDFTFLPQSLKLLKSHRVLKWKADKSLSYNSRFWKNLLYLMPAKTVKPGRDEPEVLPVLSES
T1 sequence (looked up) 2: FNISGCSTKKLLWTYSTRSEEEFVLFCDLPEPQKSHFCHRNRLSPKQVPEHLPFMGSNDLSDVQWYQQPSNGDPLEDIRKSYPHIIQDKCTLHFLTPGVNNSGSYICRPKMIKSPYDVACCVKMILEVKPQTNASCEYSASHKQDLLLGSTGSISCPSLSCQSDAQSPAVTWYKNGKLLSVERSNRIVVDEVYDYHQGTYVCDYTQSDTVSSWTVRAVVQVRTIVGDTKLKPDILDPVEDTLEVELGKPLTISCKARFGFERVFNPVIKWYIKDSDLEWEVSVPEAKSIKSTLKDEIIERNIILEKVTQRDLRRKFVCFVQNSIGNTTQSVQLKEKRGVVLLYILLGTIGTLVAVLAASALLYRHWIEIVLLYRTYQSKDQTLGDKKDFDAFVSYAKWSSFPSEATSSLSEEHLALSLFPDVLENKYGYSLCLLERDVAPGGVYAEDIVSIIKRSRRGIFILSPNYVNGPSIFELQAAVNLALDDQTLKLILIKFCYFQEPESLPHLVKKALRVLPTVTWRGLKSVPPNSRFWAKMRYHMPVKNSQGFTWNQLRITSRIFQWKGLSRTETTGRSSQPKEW
Assay: cell-based or functional assay
measured_property: HEK-Blue activity, No BP, DF-100,000
Would you mind answering with just the numeric figure?

{"binder": "IL-18 variant L15I, K53H, S55M (ligand) YFGKLESKLSVIRNINDQVLFIDQGNRPLFEDMTDSDMRDNAPRTIFIISMYHDMQPRGMAVTISVKSEKISTLSSENKIISFKEMNPPDNIKDTKSDIIFFQRSVPGHDNKMQFESSSYEGYFLASEKERDLFKLILKKEDELGDRSIMFTVQNED", "HEK-Blue activity, No BP, DF-100,000": 0.1}

Okay, now this binder:
[in] Entry IL-18 variant K53Y, S55G, Q56H (ligand) YFGKLESKLSVIRNLNDQVLFIDQGNRPLFEDMTDSDMRDNAPRTIFIISMYYDGHPRGMAVTISVKSEKISTLSSENKIISFKEMNPPDNIKDTKSDIIFFQRSVPGHDNKMQFESSSYEGYFLASEKERDLFKLILKKEDELGDRSIMFTVQNED needs its HEK-Blue activity, No BP, DF-100,000 filled in; supply it.
[out] 0.15
